Can you tell me Optical Density (OD) for the items I'm about to list?
- Test System: T1, human CD1a protein (pool B) (human, UniProt P06126 18-295, limits assumed)
- T1 construct: Recombinant protein of the ELISA (coated) and the Biacore T200 titration; whole entry named; also called human CD1a pool B; full length CD1a
- T1 sequence (P06126 18-295 limits assumed): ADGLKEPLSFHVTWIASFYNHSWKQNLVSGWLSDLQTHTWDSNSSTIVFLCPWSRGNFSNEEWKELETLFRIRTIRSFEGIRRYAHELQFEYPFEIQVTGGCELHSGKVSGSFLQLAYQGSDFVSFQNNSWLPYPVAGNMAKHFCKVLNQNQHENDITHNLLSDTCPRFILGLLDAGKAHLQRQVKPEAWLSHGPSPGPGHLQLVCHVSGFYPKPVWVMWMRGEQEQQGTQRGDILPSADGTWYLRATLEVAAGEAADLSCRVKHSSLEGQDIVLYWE
- Protocol Details: ELISA, 0.1 µg/ml antibody
One number for each entry, in OD.

Enquiry: # query: Optical Density (OD) of entry 16 (VR11834) (antibody, V domains shown, also called OX16; antibody 16) VH: EVQLVESGGGLVKPGGSLKLSCAASGFTFSNYAMSWVRQTPEKRLEWVAAINSNGGSAYYPDTVKDRFTISRDNAKNTLYLQMSSLRSEDTALYYCARRFYYDYGWFAYWGQGTLVTVSS VL: DIVLTQSPASLSASVGETVTITCRASENIDSYLAWYQQKQGKSPQLLVYAATLLADGVPSRFSGSGSGTQYSLKINSLQSEDVARYYCQHYYSSPWTFGGGTKLEIK
Return: 0.59

Enquiry: Also 77A (VR11851) (antibody, V domains shown, also called OX77a; antibody 77a) VH: QSVEESGGRLVTPGTPLTLTCTVSGFSLSSYAMSWVRQAPGKGLEWIGIISSSGTTYYASWAKGRFTISKTSTTVDLKITSPTTEDTATYFCARVDYYSSGWGGLWGPGTLVTVSS VL: AVEMTQTPASMSAAVGGTVTIKCQASEDIYSNLAWYQQKPGQPPKLLIYGASTLASGVPSRFKGSGSGTEYTLTISGVQCDDAATYYCQCTYDTSSYGNTFGGGTEMVVE , if possible.
Return: 1.36

Enquiry: Also 116 (VR12117) (antibody, V domains shown, also called OX116) VH: QSVEESGGRLVTPGTPLTLTCTVSGFSLSNYAMSWVRQAPGKGLEWIGIIYTTGFTYYASWVKGRFTISKTSTTVDLKITSPTTEDTATYFCARGLATYVSPPTRLDLWGQGTLVTVSS VL: AQVLTQTPSPVSAAVGGTVTINCQASQSIYNSKNLAWYQQKPGQPPKLLIYSASTLASGVPSRFKGSGSGTQFTLTISDLECDDAATYYCQGEFSCSSVDCATFGGGTEVVVK , if possible.
Return: 1.07

Please look at the following binder next.
Enquiry: # query: Optical Density (OD) of entry 111 (VR12113) (antibody, V domains shown, also called OX111) VH: QSVEESGGRLVTPGTPLTLTCTASGFSLSTYAMSWVRQAPGKGLEWIGIISSSGSTYYASWAKGRFTISKTSTTVDLKITSPTTEDTATYFCARETWYWLDLWGQGTLVTVSS VL: AVEMTQTPASVSAAVGGTVTINCQASEDIYSNLAWYQQKPGQPPKLLIYGASTLASGVPSRFKGSGSGTEYTLTISGVQCDDAATYYCQCAYDSSSYGTPFGGGTEVVVK
Return: 1.06
